- System: wild oat
- assay.remarks: Test C postemergence
- Assay type: in vivo, Avena fatua
- experimental.context: Postemergence, 62 g ai/ha; scale 0 to 100 (0 no effect, 100 complete control)
measured.metric: Plant response rating, Oat, Wild

INSERT INTO results (compound_smiles, test_target, measured_metric, value_observed) VALUES
  ('N#Cc1cn(-c2c(Br)cccc2Oc2ncc(Cl)cn2)nn1', 'wild oat', 'Plant response rating, Oat, Wild', 5),
  ('N#Cc1cccc(Oc2ncc(Cl)cn2)c1-n1cnc(Br)c1', 'wild oat', 'Plant response rating, Oat, Wild', 0);

Indicate the recorded Plant response rating, Oat, Wild value for this molecule: `N#Cc1cccc(Oc2ncc(Br)cn2)c1-n1cc(I)cn1` 10

Indicate the recorded Plant response rating, Oat, Wild value for this molecule: `CCCOc1cnn(-c2c(C#N)cccc2Oc2ncc(Cl)cn2)c1` 5

Indicate the recorded Plant response rating, Oat, Wild value for this molecule: `N#Cc1cnn(-c2c(C#N)cccc2Oc2ncc(F)cn2)c1` 5

Indicate the recorded Plant response rating, Oat, Wild value for this molecule: `FCc1cccc(Oc2ncc(Br)cn2)c1-n1cc(C(F)(F)F)cn1` 5

Indicate the recorded Plant response rating, Oat, Wild value for this molecule: `CCOc1cn(-c2c(Br)cccc2Oc2ncc(Cl)cn2)nn1` 5

###

- Test system: pigweed
- assay.remarks: Test A postemergence
- Assay type: in vivo, Amaranthus retroflexus
- experimental.context: 125 g ai/ha, 0 to 100 scale where 0 is no effect and 100 is complete control
In plain terms, low Plant response rating, Pigweed, meaning strictly below 90, gives Y, and everything else gives N.

INSERT INTO results (compound_smiles, assigned_class) VALUES
  ('Fc1cnc(Oc2ccccc2-n2cc(Cl)cn2)nc1', 'N'),
  ('Clc1cnc(Oc2ccccc2-n2cc(Br)c(Br)n2)nc1', 'Y'),
  ('Cc1nn(-c2ccccc2Oc2ncc(Cl)cn2)cc1Br', 'Y');

Hello, I'm reviewing records and need to know if Plant response rating, Pigweed of `N#Cc1cccc(Oc2ncc(I)cn2)c1-n1cc(Br)cn1` is below 90. Could you check? Y

Hello, I'm reviewing records and need to know if Plant response rating, Pigweed of `FC(F)(F)c1cnc(Oc2ccccc2-n2cc(Cl)cn2)nc1` is below 90. Could you check? N

Hello, I'm reviewing records and need to know if Plant response rating, Pigweed of `FC(F)(F)c1cccc(Oc2ncc(Cl)cn2)c1-n1cc(Br)cn1` is below 90. Could you check? N

Hello, I'm reviewing records and need to know if Plant response rating, Pigweed of `FC(F)(F)c1cnc(Oc2ccccc2-n2cc(C(F)(F)F)cn2)nc1` is below 90. Could you check? Y

Hello, I'm reviewing records and need to know if Plant response rating, Pigweed of `CC(C)(C)c1ccn(-c2ccccc2Oc2ncc(Br)cn2)n1` is below 90. Could you check? Y

Hello, I'm reviewing records and need to know if Plant response rating, Pigweed of `FC(F)(F)c1ccn(-c2ccccc2Sc2ncc(Cl)cn2)n1` is below 90. Could you check? Y

Hello, I'm reviewing records and need to know if Plant response rating, Pigweed of `COc1ccc(Oc2ncc(Cl)cn2)c(-n2cc(Br)cn2)c1` is below 90. Could you check? Y

###

- Test system: ragweed
- assay.remarks: Test E preemergence
- Format: in vivo, Ambrosia elatior
- experimental.context: 125 g ai/ha, scale 0 to 100, 0 no effect, 100 complete control
In plain terms, low Plant response rating, Ragweed, meaning strictly below 20, gives fulfilled, and everything else gives not fulfilled.

INSERT INTO assay_data (compound_smiles, test_target, assigned_class) VALUES
  ('N#Cc1cnn(-c2c(CF)cccc2Oc2ncc(F)cn2)c1', 'ragweed', 'not fulfilled'),
  ('CCOc1cnn(-c2c(C#N)cccc2Oc2ncc(F)cn2)c1', 'ragweed', 'not fulfilled'),
  ('N#Cc1cccc(Oc2ncc(F)cn2)c1-n1cc(Cl)cn1', 'ragweed', 'not fulfilled');

Proceed to the following item.
Hello, I'm reviewing records and need to know if Plant response rating, Ragweed of `N#Cc1cccc(Oc2ncc(Br)cn2)c1-n1cc(C(F)(F)F)cn1` is below 20. Could you check? fulfilled

###

- Tested on: ragweed
- assay.remarks: Test A postemergence
- Format: in vivo, Ambrosia elatior
- experimental.context: 1000 g ai/ha, 0 to 100 scale, 0 no effect, 100 complete control
- Excerpt: […]
measured.metric: Plant response rating, Ragweed
Lab note: record the figure alone, no unit after it.

Indicate the recorded Plant response rating, Ragweed value for this molecule: FC(F)(F)c1cnn(-c2c(Oc3ncc(Cl)cn3)cccc2-c2nnco2)c1 [Compound 298] 90

###

- System: soybean
- assay.remarks: Test C preemergence
- Type: in vivo, Glycine max
- experimental.context: 125 g ai/ha, preemergence; scale 0 (no effect) to 100 (complete control)
Recorded Soybean plant response rating, one value per entry.

Indicate the recorded Soybean plant response rating value for this compound: N#Cc1cccc(Oc2ncc(F)cn2)c1-n1cc(Cl)cn1 [Compound 73] 75

Indicate the recorded Soybean plant response rating value for this compound: N#Cc1cnn(-c2c(C#N)cccc2Oc2ncc(F)cn2)c1 [Compound 111] 95

###

- System: velvetleaf
- assay.remarks: Test C preemergence
- Assay type: in vivo, Abutilon theophrasti
- experimental.context: 16 g ai/ha, preemergence; scale 0 to 100 (0 no effect, 100 complete control)
Recorded Velvetleaf plant response rating, one value per entry.
Lab note: record the figure alone, no unit after it.

INSERT INTO measurements (compound_smiles, value_observed) VALUES
  ('FCc1cn(-c2c(F)cccc2Oc2ncc(Cl)cn2)nn1', 85),
  ('N#Cc1cnn(-c2c(CF)cccc2Oc2ncc(F)cn2)c1', 85);

Now look at this one.
Indicate the recorded Velvetleaf plant response rating value for this compound: `N#Cc1cnn(-c2c(Oc3ncc(Cl)cn3)cccc2C(F)F)c1` 65

###

- Tested on: soybean
- assay.remarks: Test C preemergence
- Format: in vivo, Glycine max
- experimental.context: 62 g ai/ha, preemergence; scale 0 (no effect) to 100 (complete control)
Recorded Soybean plant response rating, one value per entry.
Lab note: record the figure alone, no unit after it.

Recorded Soybean plant response rating, per entry:
INSERT INTO measurements (compound_smiles, test_target, value_observed) VALUES
  ('N#Cc1cn(-c2c(Br)cccc2Oc2ncc(Cl)cn2)nn1', 'soybean', 40),
  ('FC(F)(F)c1cnn(-c2c(Cl)cccc2Oc2ncc(Cl)cn2)c1', 'soybean', 90),
  ('CCOc1cnn(-c2c(C#N)cccc2Oc2ncc(Cl)cn2)c1', 'soybean', 80);

Retrieve Soybean plant response rating on soybean; query `CCOc1cn(-c2c(Br)cccc2Oc2ncc(Cl)cn2)nn1` 60

Retrieve Soybean plant response rating on soybean; query `N#Cc1cnn(-c2c(CF)cccc2Oc2ncc(F)cn2)c1` 85

Retrieve Soybean plant response rating on soybean; query `Clc1cnc(Oc2cccc(Br)c2-n2cc(Br)nn2)nc1` 40

###

- System: sandbur
- assay.remarks: Test E preemergence
- Type: in vivo, Cenchrus echinatus
- experimental.context: 62 g ai/ha, scale 0 to 100 (0 no effect, 100 complete control)
measured.metric: Sandbur plant response rating

INSERT INTO measurements (compound_smiles, value_observed) VALUES
  ('FC(F)(F)c1cnn(-c2c(Cl)cccc2Oc2ncc(Cl)cn2)c1', 20);

Indicate the recorded Sandbur plant response rating value for this compound: `N#Cc1cnn(-c2c(C#N)cccc2Oc2ncc(F)cn2)c1` 0

Indicate the recorded Sandbur plant response rating value for this compound: `N#Cc1cccc(Oc2ncc(Br)cn2)c1-n1cc(C(F)(F)F)cn1` 30

Indicate the recorded Sandbur plant response rating value for this compound: `CCOc1cnn(-c2c(C#N)cccc2Oc2ncc(F)cn2)c1` 10

Indicate the recorded Sandbur plant response rating value for this compound: `FCc1cccc(Oc2ncc(Cl)cn2)c1-n1cc(Cl)cn1` 0

###

- Test system: morningglory
- assay.remarks: Test A postemergence
- Format: in vivo, Ipomoea spp.
- experimental.context: 125 g ai/ha, 0 to 100 scale where 0 is no effect and 100 is complete control
Recorded Morningglory plant response rating, one value per entry.
Lab note: record the figure alone, no unit after it.

Recorded Morningglory plant response rating, per entry:
INSERT INTO assay_data (compound_smiles, value_observed) VALUES
  ('CCOc1cnn(-c2ccccc2Oc2ncc(Cl)cn2)c1', 70),
  ('N#Cc1cnn(-c2c(Oc3ncc(Cl)cn3)cccc2C(F)F)c1', 80),
  ('O=Cc1cccc(Oc2ncc(Cl)cn2)c1-n1cc(C(F)(F)F)cn1', 0);

Indicate the recorded Morningglory plant response rating value for this compound: `COc1cnc(Oc2cccc(C#N)c2-n2cc(Br)cn2)nc1` 70

Indicate the recorded Morningglory plant response rating value for this compound: `O=Cc1cccc(Oc2ncc(Cl)cn2)c1-n1cc(Cl)cn1` 0

Indicate the recorded Morningglory plant response rating value for this compound: `O=Cc1cccc(Oc2ncc(Br)cn2)c1-n1cc(C(F)(F)F)cn1` 0

###

- System: velvetleaf
- assay.remarks: Test C postemergence
- Type: in vivo, Abutilon theophrasti
- experimental.context: 125 g ai/ha, postemergence
Recorded Plant response rating (0 to 100), Velvetleaf, one value per entry.
Lab note: record the figure alone, no unit after it.

INSERT INTO results (compound_smiles, value_observed) VALUES
  ('N#Cc1cccc(Oc2ncc(F)cn2)c1-n1cc(Cl)cn1', 50),
  ('N#Cc1cccc(Oc2ncc(Cl)cn2)c1-n1cnc(Br)c1', 50);

Indicate the recorded Plant response rating (0 to 100), Velvetleaf value for this molecule: `Clc1cnc(Oc2cccc(Br)c2-n2cc(Br)cn2)nc1` 65

Indicate the recorded Plant response rating (0 to 100), Velvetleaf value for this molecule: `N#Cc1cccc(Oc2ncc(F)cn2)c1-n1cc(I)cn1` 65
